System: DU-145 prostate
Test: NCI tumour cell line growth inhibition, 48 h
Would you kindly list TGI for each of these compounds?
Numbers only; they are read as µM.

Exercise: Look up TGI of COc1cc(C2C=C(c3cccc(NC(C)=O)c3)Nc3ncnn32)cc(OC)c1OC (stereo not drawn) and report it.
Key: 7.34

Exercise: Look up TGI of COc1ccc2nc3cc(Cl)ccc3c(NCCCCCC(=O)NC(COc3cnc4c(ccc5cccnc54)c3)COc3cnc4c(ccc5cccnc54)c3)c2c1 and report it.
Key: 23.4

Exercise: Look up TGI of COc1cc(O)c([C@@H]2C[C@H](CCc3ccc(O)cc3)O[C@H](c3ccc(O)cc3)C2)c(O)c1C(=O)/C=C/c1ccc(O)cc1 and report it.
Key: 10.1

Exercise: Look up TGI of O=C(NNc1nc(Cl)nc(N2CCN(C(c3ccccc3)c3ccccc3)CC2)n1)c1ccccc1 and report it.
Key: 4.53

Exercise: Look up TGI of CCOc1cc2ncc(C#N)c(Nc3ccc(OCc4cccc(F)c4)c(Cl)c3)c2cc1NC(=O)CC1CCSS1 (stereo not drawn) and report it.
Key: 1.36

Exercise: Look up TGI of O=C(Nc1ccccc1)O/N=C(/CBr)c1ccccc1 and report it.
Key: 38.1

Exercise: Look up TGI of Cc1ccc(F)cc1NC(=O)O/N=C(\Cl)C(C)C and report it.
Key: 33.5

Exercise: Look up TGI of C=C1C(=O)O[C@H]2[C@H]1CC/C(COC(=O)c1cc3cc(F)ccc3[nH]1)=C\CC[C@@]1(C)O[C@@H]21 and report it.
Key: 3.19

---

Test system: NCI-H522 lung
Assay: NCI tumour cell line growth inhibition, 48 h
Would you kindly list TGI for each of these molecules?

Exercise: Look up TGI of Nc1nc(SCc2ccccn2)c2ncn(C3CCCC3)c2n1 and report it.
Key: > 100 µM

Exercise: Look up TGI of Cc1ccc(N=Nc2c(C)nn(C(=O)CC(=O)Nc3ccccc3)c2C)cc1C and report it.
Key: > 100 µM

Exercise: Look up TGI of CCOC(=O)/C(O)=C1\C(=O)N(C)C(=O)C1c1ccc(OC)c(OC)c1 (stereo unspecified) and report it.
Key: > 100 µM

Exercise: Look up TGI of Cc1ccc(CNc2c3ccccc3nc3ccccc23)cc1 and report it.
Key: 4.75 µM

Exercise: Look up TGI of COc1cc2c3cc1Oc1c(O)c(OC)cc4c1[C@H](Cc1ccc(cc1)Oc1cc(ccc1O)C[C@H]3N(C)CC2)N(C)CC4 and report it.
Key: 27 µM

Exercise: Look up TGI of COc1ccc2c(c1)OC(c1cccnc1)C(c1ccccc1)C2=O (stereo unspecified) and report it.
Key: > 100 µM

Exercise: Look up TGI of Cc1ncc(CN=Cc2ccc(Cl)cc2)c(N)n1 and report it.
Key: > 100 µM

Exercise: Look up TGI of C=CCn1c2c(c3ccccc3c1=O)C(=O)c1ccccc1-2 and report it.
Key: > 100 µM

Exercise: Look up TGI of Cn1ccnc1S/C(=C\C=C(C#N)C#N)c1ccc(Cl)cc1 and report it.
Key: 11.5 µM

Exercise: Look up TGI of S=C1c2ccccc2NC(=NC2CCCC2)C2CSCN12 (stereo unspecified) and report it.
Key: > 100 µM

Exercise: Look up TGI of Cc1ccc(-[n+]2c3cc(N)c(C)cc3nc3cc(C)c(Nc4ccccc4)cc32)cc1 and report it.
Key: 0.788 µM

---

System: SK-OV-3 ovarian
Assay: NCI tumour cell line growth inhibition, 48 h; in the data active = GI50 below about 0.43 µM; inactive = the rest
# valid calls are true (1) (active), false (0) (inactive); nothing else

Exercise: Entry COc1ccc2nc(N/N=C(\C)c3ccccn3)cc(C)c2c1 : call = ?
Key: true (1)

Exercise: Entry Cc1cc(-c2ncc(CC(=O)Nc3ccc(-c4cnccn4)cn3)cc2C)ccn1 : call = ?
Key: false (0)

Exercise: Entry COc1ccc2c(c1)[nH]c(=O)c1c3cc(C)c(C)cc3cn21 : call = ?
Key: true (1)

Exercise: Entry COc1ccc2cc(C(=O)/C=C/c3cc(OC)c(OC)c(OC)c3)ccc2c1 : call = ?
Key: false (0)

Exercise: Entry COc1cc(-c2nn(-c3ccc(NC(=O)c4ccc(Cl)c(Cl)c4)cc3)cc2-c2ccncc2)ccc1Cl : call = ?
Key: false (0)

Exercise: Entry O=c1oc2cc(OS(=O)(=O)c3ccc(F)cc3)ccc2c2c1CCCCC2 : call = ?
Key: false (0)

Exercise: Entry CN(C)c1cccc2c(S(=O)(=O)N[C@H]3CC[C@H]4[C@@H]5CCc6cc(O)ccc6[C@H]5CC[C@]34C)cccc12 : call = ?
Key: false (0)

Exercise: Entry ClCc1cccc(Cn2cnc3c(Cl)ncnc32)c1 : call = ?
Key: false (0)

Exercise: Entry CCOC(=O)c1c2c(n3ccc(NC(=O)CCN4CCCC4)cc13)C(=O)c1ncccc1C2=O : call = ?
Key: false (0)

Exercise: Entry O=[N+]([O-])C1C(c2ccccc2)C12c1ccccc1-c1ccccc12 (centres undefined) : call = ?
Key: false (0)

Exercise: Entry COC(=O)N[C@H]1CCc2c(Br)c(OC)c(OC)c(OC)c2-c2ccc(SC)c(=O)cc21 : call = ?
Key: true (1)

Exercise: Entry CC(=O)O[C@H]1CC[C@@]2(C)C(=CC[C@@H]3[C@@H]2CC[C@]2(C)C(c4cccnc4)=CC[C@@H]32)C1 : call = ?
Key: false (0)

Exercise: Entry C=C1CC2(OC1=O)C(=O)N(CCCCCCCN1C(=O)C3(CC(=C)C(=O)O3)c3ccccc31)c1ccccc12 (centres undefined) : call = ?
Key: false (0)

Exercise: Entry CCN(CC)CCOc1nc2ccc(OC)cc2c2c1-c1ccc(OC)cc1C2=O : call = ?
Key: false (0)

Exercise: Entry COc1ccc2c(c1)/C(=C\c1c(C)nc3sc(C)cn13)C(=O)N2C : call = ?
Key: false (0)

Exercise: Entry O=C(CN1CCN(c2ncccn2)CC1)Nc1ccc(Cl)cc1C(=O)c1ccccc1Cl : call = ?
Key: false (0)

Exercise: Entry COc1cc(C2CC(c3ccc(C)cc3)=NN2C=O)ccc1Oc1ccnc2cc(Cl)ccc12 (centres undefined) : call = ?
Key: false (0)

Exercise: Entry N=C1C(c2nc(-c3ccc(Br)cc3)cs2)=C(O)CN1Cc1cccnc1 : call = ?
Key: false (0)

Exercise: Entry COc1cc2c3c(n(C)c(=O)c2cc1OC)-c1cc2c(cc1/C3=C\CCCCCN)OCO2 : call = ?
Key: false (0)

---

Would you kindly list TGI for each of these compounds?
System: MDA-MB-231 breast
Assay: NCI tumour cell line growth inhibition, 48 h
Numbers only; they are read as µM.

Exercise: Look up TGI of COc1ccc2nc(N/N=C(\C)c3ccccn3)cc(C)c2c1 and report it.
Key: 1.87

Exercise: Look up TGI of O=[N+]([O-])c1cccc(-c2csc(N=Nc3c(O)[nH]c4ccccc34)n2)c1 and report it.
Key: 39.5

Exercise: Look up TGI of Cc1ccc([N+](=O)[O-])cc1S(=O)(=O)Nc1ccc(C2=NN(c3ccc([N+](=O)[O-])cc3[N+](=O)[O-])C(c3ccccc3)C2)cc1 (configuration not stated) and report it.
Key: 33.4

---

System: SNB-75 CNS
Assay: NCI tumour cell line growth inhibition, 48 h
Lab note: anything with TGI at or over 50 µM counts as 1; the rest go in -1.

Exercise: In plain terms: is recorded TGI at least 50 µM for CN(C)c1ccc(/C=N/Nc2nc3ccccc3c(=O)n2-c2ccccc2)cc1 ?
Key: 1

Exercise: In plain terms: is recorded TGI at least 50 µM for CCN(CC)Cc1nc2sc3c(c2c(=O)n1-c1ccccc1)CCCC3 ?
Key: -1

Exercise: In plain terms: is recorded TGI at least 50 µM for CC(C)(CN)CN ?
Key: 1

Exercise: In plain terms: is recorded TGI at least 50 µM for COc1ccc2cc(C(=O)/C=C/c3cc(OC)c(OC)c(OC)c3)ccc2c1 ?
Key: -1

Exercise: In plain terms: is recorded TGI at least 50 µM for CC(=O)Oc1ccc(/C=C/C(=O)O[C@@H](C)[C@H](C)OC(=O)/C=C/c2ccc(OC(C)=O)c(OC(C)=O)c2)cc1OC(C)=O ?
Key: 1

Exercise: In plain terms: is recorded TGI at least 50 µM for COc1ccc(N2C=Nn3c(nc4sc(C)c(C)c4c3=O)C2)cc1 ?
Key: 1

Exercise: In plain terms: is recorded TGI at least 50 µM for Cn1ccnc1S/C(=C\C=C(C#N)C#N)c1ccc(Cl)cc1 ?
Key: -1

Exercise: In plain terms: is recorded TGI at least 50 µM for CC(=O)NCCCCNCCCNC(C)=O ?
Key: 1

Exercise: In plain terms: is recorded TGI at least 50 µM for O=C(O)CSc1n[nH]c(-c2ccc(O)cc2)n1 ?
Key: 1
